Biological target: T1, CAPRIN-1 protein expressed on the membrane surface of human cancer cells (human, UniProt Q14444 2-709)
T1 sequence (looked up): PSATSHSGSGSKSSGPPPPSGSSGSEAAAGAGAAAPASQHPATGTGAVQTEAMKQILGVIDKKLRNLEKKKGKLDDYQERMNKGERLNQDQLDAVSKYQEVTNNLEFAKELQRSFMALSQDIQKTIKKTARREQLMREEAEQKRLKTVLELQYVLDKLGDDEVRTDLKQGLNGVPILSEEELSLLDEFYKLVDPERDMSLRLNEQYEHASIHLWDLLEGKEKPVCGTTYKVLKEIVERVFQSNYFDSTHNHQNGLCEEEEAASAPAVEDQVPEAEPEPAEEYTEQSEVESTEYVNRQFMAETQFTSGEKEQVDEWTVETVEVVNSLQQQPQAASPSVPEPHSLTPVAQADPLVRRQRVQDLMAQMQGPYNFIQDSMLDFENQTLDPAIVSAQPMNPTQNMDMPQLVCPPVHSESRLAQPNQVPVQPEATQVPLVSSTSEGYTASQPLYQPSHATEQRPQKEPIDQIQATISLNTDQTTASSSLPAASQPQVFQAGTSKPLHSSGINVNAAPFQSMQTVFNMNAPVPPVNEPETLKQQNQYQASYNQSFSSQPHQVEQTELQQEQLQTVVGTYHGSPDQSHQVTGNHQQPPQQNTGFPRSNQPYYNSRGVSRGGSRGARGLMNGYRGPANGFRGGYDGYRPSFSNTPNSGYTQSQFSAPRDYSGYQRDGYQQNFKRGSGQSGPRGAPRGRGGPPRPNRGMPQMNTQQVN
Experiment: cell-based or functional assay
readoutLabel: ADCC cytotoxic activity (51Cr release) on RPM11666

Answered examples (2):
binder	val
humanized antibody #4 (antibody, V domains shown) VH: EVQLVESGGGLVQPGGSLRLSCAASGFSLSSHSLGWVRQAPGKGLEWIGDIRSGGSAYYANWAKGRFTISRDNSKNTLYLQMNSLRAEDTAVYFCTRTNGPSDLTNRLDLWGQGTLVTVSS VL: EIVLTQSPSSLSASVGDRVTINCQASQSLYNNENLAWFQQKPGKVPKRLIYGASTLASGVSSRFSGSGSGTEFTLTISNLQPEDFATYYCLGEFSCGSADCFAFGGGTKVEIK	≥ 36%
humanized antibody #9 (antibody, V domains shown) VH: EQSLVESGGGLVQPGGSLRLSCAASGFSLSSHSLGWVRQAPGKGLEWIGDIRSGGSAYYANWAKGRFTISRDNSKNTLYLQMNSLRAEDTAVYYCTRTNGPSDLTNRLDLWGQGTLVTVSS VL: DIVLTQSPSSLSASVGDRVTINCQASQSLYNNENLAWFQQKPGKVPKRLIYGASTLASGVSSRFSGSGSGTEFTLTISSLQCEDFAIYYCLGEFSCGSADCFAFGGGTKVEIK	≥ 30%

Next binder, ADCC cytotoxic activity (51Cr release) on RPM11666 to be filled in.
Request: // returns reported ADCC cytotoxic activity (51Cr release) on RPM11666 for input humanized antibody #6 (antibody, V domains shown) VH: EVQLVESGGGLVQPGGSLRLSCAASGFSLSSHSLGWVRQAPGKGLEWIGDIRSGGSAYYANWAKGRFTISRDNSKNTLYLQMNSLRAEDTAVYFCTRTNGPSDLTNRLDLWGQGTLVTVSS VL: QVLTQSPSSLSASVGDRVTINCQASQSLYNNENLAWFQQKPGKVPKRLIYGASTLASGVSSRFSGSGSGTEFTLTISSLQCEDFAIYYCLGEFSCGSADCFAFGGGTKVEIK
Response: ≥ 40%
